# TGI listing for each entry below
- Tested on: HT29 colon
- protocol: NCI tumour cell line growth inhibition, 48 h
Where a SMILES comes first, the peptide text is derived from it. Bridges are numbered along the chain shown (N, C = ends).

| compound | test system | TGI |
| --- | --- | --- |
| Cc1nc(Nc2ccc(Cl)cc2)sc1C(=O)Nc1cccc2c(=O)[nH][nH]c(=O)c12 | HT29 colon | 41.6 µM |
| COc1ccc(C2C3=C(COC3=O)Oc3cc4c(cc32)OCO4)cc1OC (centres undefined) | HT29 colon | 13 µM |
| c1ccc(C2N=C(c3ccccn3)C(c3ccccn3)=NC2c2ccccc2)cc1 (centres undefined) | HT29 colon | > 100 µM |
| C[C@]12CC[C@H]3[C@@H](CC=C4C[C@@H](O)CC[C@@]43C)[C@@H]1C/C(=C\c1ccc([N+](=O)[O-])cc1)[C@@H]2O | HT29 colon | 20.6 µM |
| CC(C)(C)c1cc(C(C)(C)C)c(SC2OC(CO)C(O)C(O)C2O)c(O)c1O (centres undefined) | HT29 colon | 24.5 µM |
| COc1c(OC2OC(C)C(O)C(O)C2O)c(OC)c2oc(-c3ccc(O)cc3)cc(=O)c2c1O (centres undefined) | HT29 colon | > 100 µM |
| COc1ccc(-c2nc(-c3cnccn3)n(C/C=C/c3ccccc3)n2)cc1 | HT29 colon | > 100 µM |
| COC1OC(C)/C(=N/O)C2OC(C)(C)OC12 (centres undefined) | HT29 colon | > 100 µM |
| O=C(O)C12C=CC(C1)c1ccccc12 (centres undefined) | HT29 colon | > 100 µM |
| COc1ccc(/C=C(\C#N)c2cc(OC)c(OC)c(OC)c2)cc1 | HT29 colon | 17.8 µM |
| COc1ccc(C(=O)Cn2c(C(=O)c3ccc(Cl)cc3)nc(-c3ccccc3)c2-c2ccccc2)cc1 | HT29 colon | > 100 µM |
| COC1CCC(CO)OO1 (centres undefined) | HT29 colon | > 100 µM |
| CC(=O)N1CCOC12N=NC(C)(C)O2 (centres undefined) | HT29 colon | > 100 µM |
| O=C(O)c1c(CC(Cc2ccccc2)C(=O)O)ccc2c1CCC2 (centres undefined) | HT29 colon | > 100 µM |
| O=C(NNC(=O)c1ccc(Cl)cc1NC(=O)C12CC3CC(CC(C3)C1)C2)c1ccc(Cl)cc1 | HT29 colon | 77 µM |
| Cn1cc(-c2csc(-c3ccc(Cl)cc3)n2)c2cccnc21 | HT29 colon | 25.9 µM |
| COc1ccc(N=c2nc3sc4cc(Cl)ccc4n3c(N)c2C#N)cc1 | HT29 colon | > 100 µM |
| CSCSCC(CO)NC(=O)/C=C\c1c(C)[nH]c(=O)[nH]c1=O (centres undefined) | HT29 colon | 270 µM |
| Cc1noc(-c2ccc(C(=O)O)[nH]2)c1Br | HT29 colon | > 100 µM |
| COC(=O)N[C@@H](C)CNc1nccc(-c2cn(C(C)C)nc2-c2cc(Cl)cc(NS(C)(=O)=O)c2F)n1 | HT29 colon | > 100 µM |
| COc1ccc(C2=NNC(c3sc(Cl)nc3Cl)C2)cc1 (centres undefined) | HT29 colon | 18.6 µM |
| Nc1ccc(C(=O)N/C(=C\c2ccc3c(c2)OCO3)c2nc3ccccc3s2)cc1 | HT29 colon | 25.8 µM |
| C(=Nc1ccc(-c2nc3ccccc3s2)cc1)c1cccs1 | HT29 colon | > 100 µM |
| COC(=O)CCCc1nc2ccccc2nc1N=Nc1ccccc1 | HT29 colon | > 100 µM |
| Cc1cc2ccccc2oc(=O)/c1=N\Nc1ccccc1 | HT29 colon | > 100 µM |
| CN1CCC(O)(OC(=O)C(c2ccccc2)C2(O)CCCC2)CC1 (centres undefined) | HT29 colon | > 100 µM |
| O=C(NNC(=O)c1ccncc1)C(=O)Nc1cc(Cl)c(Cl)cc1Cl | HT29 colon | > 100 µM |
| CN(CCOc1ccc(NS(C)(=O)=O)cc1)CCc1ccc(NS(C)(=O)=O)cc1 | HT29 colon | > 100 µM |
| CN(Cc1cnc2nc(N)nc(N)c2n1)c1c(Cl)cc(C(=O)NC(CCC(=O)O)C(=O)O)cc1Cl (centres undefined) | HT29 colon | > 100 µM |
| COC1(C)CCC(OS(C)(=O)=O)CO1 (centres undefined) | HT29 colon | > 100 µM |
| O=C1N=C2N=C(c3ccc(Cl)cc3)N(c3ccc(Cl)cc3)N2Sc2ccccc21 | HT29 colon | > 100 µM |
| CC(C)C(Br)C(=O)NCC(=O)O (centres undefined) | HT29 colon | > 100 µM |
| CSCc1ncc(-c2ccc(C(F)(F)F)cc2)c(NC2CCCCCC2)n1 | HT29 colon | > 10 µM |
| COC(=O)C1CCC(=O)NCCCCC(NC(=O)C(N)CC(=O)O)C(=O)N1 (stereo not drawn) (H-Asp-Lys-Glu-OMe; lactam 2-3; configuration not given here) | HT29 colon | > 100 µM |
| CCCCC[C@H]1C/C=C2/C(=O)C=C[C@@H]2C/C=C\CCCC(=O)O1 | HT29 colon | 0.278 µM |
| C=CC(C)(C)/C(=C\CO[Si](C(C)C)(C(C)C)C(C)C)C(=O)N(C)c1ccccc1I | HT29 colon | 27.1 µM |
| O=C(O)C1CC2C=CCC(C2)C1 (centres undefined) | HT29 colon | > 100 µM |
| C/C(=C\c1ccccc1)C(=O)c1c(C)cc(C)cc1C | HT29 colon | > 100 µM |
| COc1ccccc1/C=C(\NC(=O)c1ccccc1)c1nc2ccccc2[nH]1 | HT29 colon | > 100 µM |

All values here come from PubChem BioAssay (NCI).
